tested on: MS2 coat protein; experiment: apparent KD of MS2 coat protein; higher = weaker reporter binding; conditions: Eterna round: R107; input ligand: arginine 13.2 mM
apparent KD of MS2 coat protein for assorted sequences
Reply numerically in nM, unit not repeated.

Example results:
{"Seq text": "GAUUACAUGAGGAUCACCCAUGUAACUGAAGGAGCGGUAAUAAAGCCAGGUAGGUCGCAGAACGACAUGUGGUUCAUCCAUGUAA [#15 Exclusion - Arginine A]", "apparent KD of MS2 coat protein (nM)": 14.3}
{"Seq text": "AUACAUGAGGAUCACCCAUGUGAUGGCCGGCGAGGACCGGUACGGCCGCCACUCGUGAUCCGUCCUGAGAGCAAAGCCCUCAACA [Lequcele]", "apparent KD of MS2 coat protein (nM)": 80.1}
{"Seq text": "GUCUGUGACUGAAGGAGCGACAUGAGGAUCACCCAUGUCUCCCGUUAUGGGAGUUCCUUAGGUCAGGUAGGUCGCAGUCACAGAC [#1 Exclusion - Arginine B Attempt #28 (Inspired by Omei)]", "apparent KD of MS2 coat protein (nM)": 71.4}

Query block: Entry AGCUGGGAUCCUCAGCGUCAAAGACGCAGUCGAGGACCGGUACGGCCGCCACUCGACACGAGGAUCACCCGUGUCAUUCCCAGCA [TrypAX 1 #SwitchBubble #AlternativeMS2 #MS2Late #CuTurnoff] has what apparent KD of MS2 coat protein?
Result block: 34.5

Query block: Entry UACAUACAUGAGGAUCACCCAUGUUGCGAUACCAGCGAAAGAGACCGCCCUUGGCAGCGCUCAUUUAGUUCCAUUCUUGAUCGAA [theeternabot_sameState_MS2_Theo_A_4] has what apparent KD of MS2 coat protein?
Result block: 14.5

Query block: Entry UAUCUACAUGAAUAGGUUAUUCGAUUAUUUCGAGGACCGGUACGGCCGCCACUCGUUAACAUAUACAUGAGGAUCACCCAUGUUA [JR_Nu_SSTryptoA_Sub024] has what apparent KD of MS2 coat protein?
Result block: 16

Query block: Entry ACAUGAGGAUCACCCAUGUGAAGGCACGAUACCAGCUGAUCCCGUGGCCCUUGGCAGCGUCCGGUUUGGUCCGGCGGAUGGGACG [vvamullin] has what apparent KD of MS2 coat protein?
Result block: 13.1

Query block: Entry UGUCAGCGAAAGUUGACAUGUCUUACCGGUCGAGGACCGGUACGGCCGCCACUCGAUCUCUCGCACAUGAGGAUCACCCAUGUCG [SS Tryp A #17] has what apparent KD of MS2 coat protein?
Result block: 12.8

Query block: Entry CCUCAAUAGACGGCCGCCACUGAAACAUGAGGAUACAUGAGGAUCACCCAUGUGGGUGUGUUACGCAGGACCGGGUCAAGACCCG [Tryp B SS t1] has what apparent KD of MS2 coat protein?
Result block: 304

Query block: Entry UAGUCCGCGACGGCCGCCACUCGCUGAUGCACAUGUGUCCGGGACAUGAGGAUCACCCAUGUUUCGAGGACCGGGUCGAUCCUAA [Same State Tryptophan B GF 5] has what apparent KD of MS2 coat protein?
Result block: 37.5

Query block: Entry GACAUAUGCUAUGCGCAGGCUACCCUCAGCCGAGGACCGGUACGGCCGCCACUCGUACUACCACAUGAGGAUCACCCAUGUUAUC [theeternabot_exclusion_MS2_Trp_A_29] has what apparent KD of MS2 coat protein?
Result block: 20.1

###

tested on: MS2 coat protein; test: apparent KD of MS2 coat protein; higher = weaker reporter binding; conditions: Eterna round: R107; input ligand: theophylline 20 uM
apparent KD of MS2 coat protein for assorted sequences
Reply numerically in nM, unit not repeated.

Example results:
{"Seq text": "GGACUAACCAGAAGGAGCGACACGCAGAAACUGCAAAUUCCUCUGCACGAGGAUCACCCGUGUCAGGUAGGUCGCUGGUUAGUCG", "Observation type": "apparent KD of MS2 coat protein", "Value observed": 35.5}
{"Seq text": "UCUUUUUUCUUUUCUUCUUUCGGUUCUUUUCGAGGACCGGUACGGCCGCCACUCGAAACAUGAGGAUCACCCAUGUUUUGGUUUU [Trypto a]", "Observation type": "apparent KD of MS2 coat protein", "Value observed": 17.6}
{"Seq text": "GCAUCCUAGUCGGCCGCCACUGACAUGAGGAUCACCCAUGUACAUGAGGAUCACCCAUGUUGUAACAGGACCGGGACUAGGAUGC [SS Tryp B #18]", "Observation type": "apparent KD of MS2 coat protein", "Value observed": 112}
{"Seq text": "ACAUGAAGAACAGCGGUGGGCGCGCUCGAUACCAGUACUUUGAAAUACCCUUGGCAGCGACAUGAGGAUCACCCAUGUGAGAUGA [XTheo A #3]", "Observation type": "apparent KD of MS2 coat protein", "Value observed": 25.6}
{"Seq text": "UGUAUGUGAUCUGAUACCAGUCCAACUGGUAAAACUUGAGGAUCACCCAAGUAAAAUUGGGACCCUUGGCAGCAGAUCGCAUACU", "Observation type": "apparent KD of MS2 coat protein", "Value observed": 360}

Query block: Entry CCGUAGCUAGGAAGGAGCGCAUACUUCACAUGAGGAUCACCCAUGUCGAGACGUGAGUCAGUGCAGGUAGGUCGCCUAGCUAUGG [Same State - Arginine B (Freestyle 28)] has what apparent KD of MS2 coat protein?
Result block: 26.4

###

apparent KD of MS2 coat protein for assorted sequences
test system: MS2 coat protein; assay: apparent KD of MS2 coat protein; designed switch direction (-1 OFF switch, 1 ON switch): -1; higher = weaker reporter binding; settings: input ligand: FMN 200 uM
Reply numerically in nM, unit not repeated.

Example results:
{"Seq text": "CCAAGCUUGUUCAUUAACCACAUGAGGAUCACCCAUGUCUUGGCAAUUAUGACUUGCCCGUCAGGUGCUCGUCUUAU [Sensor-V1 #35] (Eterna round: R97, puzzle: Sensor, turn-off variant 1)", "Value observed": 65.5}
{"Seq text": "ACAUGAGGAUCACCCAUGUGGACGUAAAGGCUCAUGUAGAGUGAGGAUAUGUGAGACGAACGAGAACAGAAGGCACAAGACAGG [Deportation 6 - Jieux - Exclusion NG 3] (Eterna round: R96, puzzle: Exclusion NG 3)", "Value observed": 15.7}
{"Seq text": "GCCGAAAAUGUGAGGAUAUACCUAUGGAUACAUAGGUAGAAGGCACAUGAGGAUCACCCAUGUCCAAUAACGGC [Eli bmx4 4.25] (Eterna round: R97, puzzle: Brourd's mod of Exclusion 4)", "Value observed": 528}
{"Seq text": "AUGGGUCCUCACGGAGCUACAUGAGGAUCACCCAUGUGGAUUGAGGAUAUCGUAAGCCGACGGCACGAGAAGGCAGUUUACUGU [Ex NG3 #97] (Eterna round: R96, puzzle: Exclusion NG 3)", "Value observed": 47.5}
{"Seq text": "AAUUUACAUGAGGAUCACCCAUGUGAGGAUAUUGUAUAUUUAUAGAAAUGUGGGUGUGCAAGAAGGCACAUAGG [Alacar 2] (Eterna round: R97, puzzle: Exclusion 1)", "Value observed": 134}
{"Seq text": "GUCAGCUCGUGAGGAUAUGCACAUGAGGAUCACCCAUGUAAGAUCAAGCUGCUUCGGCAGCAAGUGCAGAAGGUACGAGCUGAC [ENG2/9-C1] (Eterna round: R96, puzzle: Exclusion NG 2)", "Value observed": 200}

Query block: Entry UAAAGCGUAGGAUAUACAUUCAUGAGCACCACCCGGUGCACACAUGAGGAUCACCCAUGUAGAAGGAUGCUACG [Eternabot (Original) Solution 49] (Eterna round: R97, puzzle: Exclusion 2) has what apparent KD of MS2 coat protein?
Result block: 14.6

###

apparent KD of MS2 coat protein for assorted sequences
system: MS2 coat protein; test: apparent KD of MS2 coat protein; designed switch direction (-1 OFF switch, 1 ON switch): 1; higher = weaker reporter binding; conditions: input ligand: none
Reply numerically in nM, unit not repeated.

{"Seq text": "GAGUGGCGGUUAGGAUAUACAGUGAUAAUGAUAGUAGAAGGAACUGACAUGAGGAUCACCCAUGUAGGACUAAUCCAGAGAGAG [Parity 31 - Jieux - Same State NG 1] (Eterna round: R96, puzzle: Same State NG 1)", "Experimental system": "MS2 coat protein", "Unit annotation": "nM", "apparent KD of MS2 coat protein": 33.7}
{"Seq text": "AAAGGAUGAUUAUACAUGAGGAUCACCCAUGUAAGUAAUACUAAGGAUAUGUGACUUAAUUGUUUACAGAAGGUAGGUUCAUGA [AK SSNG3-V2-1.1] (Eterna round: R96, puzzle: Same State NG 3)", "Experimental system": "MS2 coat protein", "Unit annotation": "nM", "apparent KD of MS2 coat protein": 117}
{"Seq text": "GCUCGAUGUGCUGUUUACAUGAGGAUCACCCAUGUAGAUGCGGAGGAUAUCUACGUGCUUUAUGUAGAGAAGGUCGUAUCGAGC [SameState NG3 #83] (Eterna round: R96, puzzle: Same State NG 3)", "Experimental system": "MS2 coat protein", "Unit annotation": "nM", "apparent KD of MS2 coat protein": 60.8}

Let us examine a further case.
Query block: Entry AGCCGAGACUGAGGAUAUUUGUAUCUACAUGAGGAUCACCCAUGUAGCAACACGUGGUAGUGAUCGAAGAAGGCAGCUCGGCGC [MOD2 of Omei's SS(NG)2 Cv2] (Eterna round: R96, puzzle: Same State NG 2) has what apparent KD of MS2 coat protein?
Result block: 291
